These measurements were taken from patent US20230263822A1.

Assay: Body and organ weights of cynomolgus monkeys (Example 45)
Assay type: in vivo
Conditions: day 15; escalating dose regimen
Protocol: Groups, each consisting of two male and three female monkeys, were injected subcutaneously with ISIS 416838, ISIS 416850, ISIS 416858, ISIS 416864, or ISIS 417002 in escalating doses. […] Body weights were measured weekly. […]

SUBSTANCE	body weights, g
ISIS 416864: MOE gapmer, nucleobases 1275 to 1318 of SEQ ID NO: 1 (Table 8) (antisense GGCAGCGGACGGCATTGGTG; MOE gapmer, wing and gap sizes not given here)	2817
ISIS 416850: MOE gapmer, nucleobases 1275 to 1318 of SEQ ID NO: 1 (Table 8) (antisense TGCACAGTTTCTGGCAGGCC; MOE gapmer, wing and gap sizes not given here)	2474
